Assay: UV-vis absorption spectra
Format: physicochemical
Details: ethanol as the solvent
endpoint-label: ε, absorption coefficient (mL mg^–1 cm^–1)
Report as a plain number; the unit mL mg^–1 cm^–1 is understood.

Below, 2 compounds whose answers are already recorded.
[
  {
    "compound": "COc1ccc(C(=O)C2=C3NCCCN3C3Oc4ccc(Br)cc4C(=O)C3=C2)cc1 (centres unmarked)",
    "unit-of-measure": "mL mg^–1 cm^–1",
    "ε, absorption coefficient": 23.56
  },
  {
    "compound": "COc1ccc(C(=O)C2=C3NCCCN3C3Oc4ccc(Cl)cc4C(=O)C3=C2)cc1 (centres unmarked)",
    "unit-of-measure": "mL mg^–1 cm^–1",
    "ε, absorption coefficient": 50.07
  }
]

# compound COc1ccc(C(=O)C2=C3NCCCCN3C3Oc4ccc(Br)cc4C(=O)C3=C2)cc1 (centres unmarked) ; its ε, absorption coefficient = 113.48

# compound COc1ccc(C(=O)C2=C3NCCCCN3C3Oc4ccc(Cl)cc4C(=O)C3=C2)cc1 (centres unmarked) ; its ε, absorption coefficient = 81.07

# compound COc1ccc(C(=O)C2=C3NCCCCN3C3Oc4ccc(F)cc4C(=O)C3=C2)cc1 (centres unmarked) ; its ε, absorption coefficient = 111.53

* * *

Test: Fluorescence spectra and quantum yield
Format: physicochemical
Conditions: ethanol as the solvent
endpoint-label: λem, emission wavelength (nm)
Report as a plain number; the unit nm is understood.

[
  {
    "compound": "COc1ccc(C(=O)C2=C3NCCCN3C3Oc4ccc(Br)cc4C(=O)C3=C2)cc1 (stereo not drawn) [3ae]",
    "endpoint-label": "λem, emission wavelength",
    "unit-of-measure": "nm",
    "reported-result": 520.5
  },
  {
    "compound": "COc1ccc(C(=O)C2=C3NCCCCN3C3Oc4ccc(Cl)cc4C(=O)C3=C2)cc1 (stereo not drawn) [3fd]",
    "endpoint-label": "λem, emission wavelength",
    "unit-of-measure": "nm",
    "reported-result": 526.0
  },
  {
    "compound": "COc1ccc(C(=O)C2=C3NCCCCN3C3Oc4ccc(Br)cc4C(=O)C3=C2)cc1 (stereo not drawn) [3fe]",
    "endpoint-label": "λem, emission wavelength",
    "unit-of-measure": "nm",
    "reported-result": 526.0
  },
  {
    "compound": "COc1ccc(C(=O)C2=C3NCCCCN3C3Oc4ccc(F)cc4C(=O)C3=C2)cc1 (stereo not drawn) [3fc]",
    "endpoint-label": "λem, emission wavelength",
    "unit-of-measure": "nm",
    "reported-result": 525.5
  },
  {
    "compound": "COc1ccc(C(=O)C2=C3NCCCN3C3Oc4ccc(Cl)cc4C(=O)C3=C2)cc1 (stereo not drawn) [3ad]",
    "endpoint-label": "λem, emission wavelength",
    "unit-of-measure": "nm",
    "reported-result": 520.0
  }
]

# compound COc1ccc(C(=O)C2=C3NCCCN3C3Oc4ccc(F)cc4C(=O)C3=C2)cc1 (stereo not drawn) [3ac] ; its λem, emission wavelength = 519.5

* * *

Tested on: SGC7901
Experiment: MTT assay, SGC7901 gastric carcinoma cells
Format: cell-based, human
Conditions: Homo sapiens, SGC-7901, 96 h, read-out: anticancer activity (IC50) SGC7901
endpoint-label: IC50 (µM)
Report as a plain number; the unit µM is understood.

Below, 3 molecules whose answers are already recorded.
[
  {
    "molecule": "COc1ccc(C(=O)C2=C3NCCCCN3C3Oc4ccc(Br)cc4C(=O)C3=C2)cc1 (stereo not drawn)",
    "IC50, µM": 13.5
  },
  {
    "molecule": "COc1ccc(C(=O)C2=C3NCCCCN3C3Oc4ccc(Cl)cc4C(=O)C3=C2)cc1 (stereo not drawn)",
    "IC50, µM": 14.8
  },
  {
    "molecule": "COc1ccc(C(=O)C2=C3NCCCCN3C3Oc4ccc(F)cc4C(=O)C3=C2)cc1 (stereo not drawn)",
    "IC50, µM": 26.7
  }
]

# molecule COc1ccc(C(=O)C2=C3NCCCN3C3Oc4ccc(Cl)cc4C(=O)C3=C2)cc1 (stereo not drawn) ; its IC50 = 18.7

# molecule COc1ccc(C(=O)C2=C3NCCCN3C3Oc4ccc(Br)cc4C(=O)C3=C2)cc1 (stereo not drawn) ; its IC50 = 17.8
